Cited source: patent US20220265629A1

- Measurement description: Food effect cross-over study, 200 mg (25 mg tablets), healthy volunteers: plasma pharmacokinetics
- Assay type: in vivo, human
- Conditions: human, plasma, oral, 4 hours postdose, Fasted, read-out: Plasma concentration, Geometric Mean
- Procedure: This example describes a clinical study for establishing, in healthy volunteers, the effect of a high fat, high caloric meal on the PK profile of Compound I, as compared to administration of the drug in the fasted state. The study also was intended to determine the safety and tolerability after a single oral dose of Compound I in the fed and fasted state in healthy volunteers. […] Plasma drug concentrations were measured as described in Example 1 above. […]
Quantity kind: concentration at 4 h

[
  {
    "Mol smiles": "Cn1cc(S(=O)(=O)[C@@](C)(F)C2CCN(C(=O)Nc3ccon3)CC2)c(C(F)F)n1",
    "Meas value": "2190 ng/mL"
  }
]
